Numbers sourced from patent EP0813867B1.

# TGT: HIV protease (Human immunodeficiency virus type 1 group M subtype B)
# Construct: HIV protease is diluted in the assay buffer to a final enzyme concentration of 12.3 nanomolar, based on a molecular weight of 10,780
# TEST SUMMARY: biochemical
# Format: biochemical
# COND: Table 13; 12.3 nanomolar enzyme, 80 µM substrate, pH 6.4, ambient temperature; read-out: IC50
RESULT TYPE: IC50 (nM)
Give bare numbers, in nM.

Worked examples follow.
| MOLECULE | TGT | IC50 (nM) |
| --- | --- | --- |
| CC(C)CCN(C[C@@H](O)[C@H](Cc1ccccc1)NC(=O)[C@H](C)C(C)(C)C(N)=O)C(=O)NC(C)(C)C | HIV protease (Human immunodeficiency virus type 1 group M subtype B) | 12 |
| CC(C)CCN(CC(O)C(Cc1ccccc1)NC(=O)C(CC(N)=O)NC(=O)c1ccc2ccccc2n1)C(=O)NC(C)(C)C (stereo not shown) | HIV protease (Human immunodeficiency virus type 1 group M subtype B) | 3.7 |
| CC(C)(C)NC(=O)N(Cc1ccc2ccccc2c1)C[C@@H](O)[C@H](Cc1ccccc1)NC(=O)[C@H](CC(N)=O)NC(=O)OCc1ccccc1 | HIV protease (Human immunodeficiency virus type 1 group M subtype B) | 31 |
| NC(=O)CC(NC(=O)c1ccc2ccccc2n1)C(=O)NC(Cc1ccccc1)C(O)CN(Cc1ccc(F)cc1)C(=O)N1CCCC1 (stereo not shown) | HIV protease (Human immunodeficiency virus type 1 group M subtype B) | 7 |
| CC(=O)NCC(C)C(=O)NC(Cc1ccccc1)C(O)CN(CCC(C)C)C(=O)NC(C)(C)C (stereo not shown) | HIV protease (Human immunodeficiency virus type 1 group M subtype B) | 100 |
| CC(=O)N[C@H](C(=O)N[C@@H](Cc1ccccc1)[C@H](O)CN(CCC(C)C)C(=O)NC(C)(C)C)C(C)(C)C | HIV protease (Human immunodeficiency virus type 1 group M subtype B) | 18 |
| CC(C)CCN(C[C@@H](O)[C@H](Cc1ccccc1)NC(=O)[C@H](CC(N)=O)NC(=O)OCc1ccccc1)C(=O)NC(C)(C)C | HIV protease (Human immunodeficiency virus type 1 group M subtype B) | 13.4 |
| CC(C)CCN(CC(O)C(Cc1ccccc1)NC(=O)C(C)CS(C)(=O)=O)C(=O)NC(C)(C)C (stereo not shown) | HIV protease (Human immunodeficiency virus type 1 group M subtype B) | 29 |

Hey, can you go through the list below and give me IC50 for every item?
1. CC(C)(C)NC(=O)N(CCc1ccccc1)CC(O)C(Cc1ccccc1)NC(=O)C(CC(N)=O)NC(=O)OCc1ccccc1 (stereo not shown)
2. CC(C)(C)NC(=O)N(Cc1ccc2ccccc2c1)CC(O)C(Cc1ccccc1)NC(=O)C(CC(N)=O)NC(=O)c1ccc2ccccc2n1 (stereo not shown)

Found:
[70, 2.9]
